Assignment: determine reported relative viability for the given compounds.
- Tested on: NCI-H1793
- testSummary: relative viability (nuclei count vs DMSO), 5 days (fraction); higher = more cells survive
- measurementContext: first compound 0.1 µM

Look over these answered cases.
NC(=O)Nc1cc(-c2cccc(F)c2)sc1C(=O)N[C@H]1CCCNC1 [AZD7762] + CS(=O)(=O)N1CCN(Cc2cc3nc(-c4cccc5[nH]ncc45)nc(N4CCOCC4)c3s2)CC1 [Pictilisib] (partner 1 µM)
0.336
NC(=O)Nc1cc(-c2cccc(F)c2)sc1C(=O)N[C@H]1CCCNC1 [AZD7762] + CS(=O)(=O)CCNCc1ccc(-c2ccc3ncnc(Nc4ccc(OCc5cccc(F)c5)c(Cl)c4)c3c2)o1 [Lapatinib] (partner 2 µM)
0.805
NC(=O)Nc1cc(-c2cccc(F)c2)sc1C(=O)N[C@H]1CCCNC1 [AZD7762] + COc1cc2c(Oc3ccc(NC(=O)C4(C(=O)Nc5ccc(F)cc5)CC4)cc3F)ccnc2cc1OCCCN1CCOCC1 [Foretinib] (partner 0.25 µM)
0.595

Kindly give each listed record's relative viability.
1. NC(=O)Nc1cc(-c2cccc(F)c2)sc1C(=O)N[C@H]1CCCNC1 [AZD7762] + Nc1nc2[nH]cc(CCc3ccc(C(=O)N[C@@H](CCC(=O)O)C(=O)O)cc3)c2c(=O)[nH]1 [Pemetrexed] (partner 0.2 µM)
2. NC(=O)Nc1cc(-c2cccc(F)c2)sc1C(=O)N[C@H]1CCCNC1 [AZD7762] + CCNC(=O)c1noc(-c2cc(C(C)C)c(O)cc2O)c1-c1ccc(CN2CCOCC2)cc1 [Luminespib] (partner 0.01 µM)

a:
1: 0.954; 2: 0.163

----------
- System: NCI-H1395
- testSummary: relative viability (nuclei count vs DMSO), 5 days (fraction); higher = more cells survive
- measurementContext: first compound 0.01 µM
Assignment: determine reported relative viability for the given compounds.
Numbers only.

Look over these answered cases.
NC(=O)Nc1cc(-c2cccc(F)c2)sc1C(=O)N[C@H]1CCCNC1 [AZD7762] + CS(=O)(=O)N1CCN(Cc2cc3nc(-c4cccc5[nH]ncc45)nc(N4CCOCC4)c3s2)CC1 [Pictilisib] (partner 1 µM)
0.663
NC(=O)Nc1cc(-c2cccc(F)c2)sc1C(=O)N[C@H]1CCCNC1 [AZD7762] + Nc1ncn([C@H]2C[C@H](O)[C@@H](CO)O2)c(=O)n1 [Decitabine] (partner 2 µM)
0.866
NC(=O)Nc1cc(-c2cccc(F)c2)sc1C(=O)N[C@H]1CCCNC1 [AZD7762] + Cc1nc(Nc2ncc(C(=O)Nc3c(C)cccc3Cl)s2)cc(N2CCN(CCO)CC2)n1 [Dasatinib] (partner 0.075 µM)
0.449

In the following, a different compound is considered.
q: Param readout = relative viability; param system = NCI-H1395; param query = NC(=O)Nc1cc(-c2cccc(F)c2)sc1C(=O)N[C@H]1CCCNC1 [AZD7762] + COc1cc2c(Oc3ccc(NC(=O)C4(C(=O)Nc5ccc(F)cc5)CC4)cc3F)ccnc2cc1OCCCN1CCOCC1 [Foretinib] (partner 0.25 µM) ; response: value
a: 0.974

----------
- Test system: HCC-827
- testSummary: relative viability (nuclei count vs DMSO), 5 days (fraction); higher = more cells survive
- measurementContext: first compound 0.04 µM
Assignment: determine reported relative viability for the given compounds.
One number for each entry.

Look over these answered cases.
O=C(O)c1ccc(-c2c[nH]c3ncc(-c4ccccc4)cc23)cc1C1CCCC1 + CS(=O)(=O)N1CCN(Cc2cc3nc(-c4cccc5[nH]ncc45)nc(N4CCOCC4)c3s2)CC1 [Pictilisib] (partner 1 µM)
1.12
O=C(O)c1ccc(-c2c[nH]c3ncc(-c4ccccc4)cc23)cc1C1CCCC1 + N=C(N)NC(=N)NCCc1ccccc1 [Phenformin] (partner 250 µM)
0.406
O=C(O)c1ccc(-c2c[nH]c3ncc(-c4ccccc4)cc23)cc1C1CCCC1 + Nc1nc2[nH]cc(CCc3ccc(C(=O)N[C@@H](CCC(=O)O)C(=O)O)cc3)c2c(=O)[nH]1 [Pemetrexed] (partner 0.2 µM)
0.198
O=C(O)c1ccc(-c2c[nH]c3ncc(-c4ccccc4)cc23)cc1C1CCCC1 + Cc1nc(NC(=O)N2CCC[C@H]2C(N)=O)sc1-c1ccnc(C(C)(C)C(F)(F)F)c1 [Alpelisib] (partner 2 µM)
0.847
O=C(O)c1ccc(-c2c[nH]c3ncc(-c4ccccc4)cc23)cc1C1CCCC1 + COc1cc2c(Oc3ccc(NC(=O)C4(C(=O)Nc5ccc(F)cc5)CC4)cc3F)ccnc2cc1OCCCN1CCOCC1 [Foretinib] (partner 0.25 µM)
0.914
O=C(O)c1ccc(-c2c[nH]c3ncc(-c4ccccc4)cc23)cc1C1CCCC1 + CC(=O)c1c(C)c2cnc(Nc3ccc(N4CCNCC4)cn3)nc2n(C2CCCC2)c1=O [Palbociclib] (partner 0.5 µM)
0.354

Kindly give each listed record's relative viability.
1. O=C(O)c1ccc(-c2c[nH]c3ncc(-c4ccccc4)cc23)cc1C1CCCC1 + Nc1ncn([C@H]2C[C@H](O)[C@@H](CO)O2)c(=O)n1 [Decitabine] (partner 2 µM)
2. O=C(O)c1ccc(-c2c[nH]c3ncc(-c4ccccc4)cc23)cc1C1CCCC1 + C[C@@H](Oc1cc(-c2cnn(C3CCNCC3)c2)cnc1N)c1c(Cl)ccc(F)c1Cl [Crizotinib] (partner 1 µM)
3. O=C(O)c1ccc(-c2c[nH]c3ncc(-c4ccccc4)cc23)cc1C1CCCC1 + Cc1cc(Nc2cc(N3CCN(C)CC3)nc(Sc3ccc(NC(=O)C4CC4)cc3)n2)n[nH]1 [Tozasertib] (partner 0.1 µM)

a:
[0.263, 0.88, 0.459]

----------
- System: NCI-H522
- testSummary: relative viability (nuclei count vs DMSO), 5 days (fraction); higher = more cells survive
- measurementContext: first compound 0.005 µM
Assignment: determine reported relative viability for the given molecules.
One number for each entry.

CC1(C)CCC(c2ccc(Cl)cc2)=C(CN2CCN(c3ccc(C(=O)NS(=O)(=O)c4ccc(N[C@H](CCN5CCOCC5)CSc5ccccc5)c(S(=O)(=O)C(F)(F)F)c4)cc3)CC2)C1 [Navitoclax] + O=C(CCCCCCC(=O)Nc1ccccc1)NO [Vorinostat] (partner 1 µM)
0.957
CC1(C)CCC(c2ccc(Cl)cc2)=C(CN2CCN(c3ccc(C(=O)NS(=O)(=O)c4ccc(N[C@H](CCN5CCOCC5)CSc5ccccc5)c(S(=O)(=O)C(F)(F)F)c4)cc3)CC2)C1 [Navitoclax] + CC(=O)c1c(C)c2cnc(Nc3ccc(N4CCNCC4)cn3)nc2n(C2CCCC2)c1=O [Palbociclib] (partner 0.5 µM)
1.02
CC1(C)CCC(c2ccc(Cl)cc2)=C(CN2CCN(c3ccc(C(=O)NS(=O)(=O)c4ccc(N[C@H](CCN5CCOCC5)CSc5ccccc5)c(S(=O)(=O)C(F)(F)F)c4)cc3)CC2)C1 [Navitoclax] + Cc1nc(Nc2ncc(C(=O)Nc3c(C)cccc3Cl)s2)cc(N2CCN(CCO)CC2)n1 [Dasatinib] (partner 0.075 µM)
0.685

q: Item under review: CC1(C)CCC(c2ccc(Cl)cc2)=C(CN2CCN(c3ccc(C(=O)NS(=O)(=O)c4ccc(N[C@H](CCN5CCOCC5)CSc5ccccc5)c(S(=O)(=O)C(F)(F)F)c4)cc3)CC2)C1 [Navitoclax] + NC(=O)Nc1cc(-c2cccc(F)c2)sc1C(=O)N[C@H]1CCCNC1 [AZD7762] (partner 0.2 µM) . Reported relative viability?
a: 0.748

----------
- System: CAL-12T
- testSummary: relative viability (nuclei count vs DMSO), 5 days (fraction); higher = more cells survive
- measurementContext: first compound 0.3162 µM
Assignment: determine reported relative viability for the given compounds.
Numbers only.

NC(=O)Nc1cc(-c2cccc(F)c2)sc1C(=O)N[C@H]1CCCNC1 [AZD7762] + Cc1nc(Nc2ncc(C(=O)Nc3c(C)cccc3Cl)s2)cc(N2CCN(CCO)CC2)n1 [Dasatinib] (partner 0.075 µM)
0.23

In the following, a different compound is considered.
q: Item under review: NC(=O)Nc1cc(-c2cccc(F)c2)sc1C(=O)N[C@H]1CCCNC1 [AZD7762] + Nc1nc2[nH]cc(CCc3ccc(C(=O)N[C@@H](CCC(=O)O)C(=O)O)cc3)c2c(=O)[nH]1 [Pemetrexed] (partner 0.2 µM) . Reported relative viability?
a: 0.612

----------
- System: HCC-827
- testSummary: relative viability (nuclei count vs DMSO), 5 days (fraction); higher = more cells survive
- measurementContext: first compound 0.253 µM
Output true for records whose relative viability is lower than 0.9, false for records at or above 0.9.

q: Is 0.9 strictly greater than the molecule's reported relative viability? molecule: Oc1nc(-c2ccc(C(F)(F)F)cc2)nc2c1CSCC2 [XAV939] + C[C@@H](Oc1cc(-c2cnn(C3CCNCC3)c2)cnc1N)c1c(Cl)ccc(F)c1Cl [Crizotinib] (partner 1 µM)
a: true

q: Is 0.9 strictly greater than the molecule's reported relative viability? molecule: Oc1nc(-c2ccc(C(F)(F)F)cc2)nc2c1CSCC2 [XAV939] + NC(=O)Nc1cc(-c2cccc(F)c2)sc1C(=O)N[C@H]1CCCNC1 [AZD7762] (partner 0.2 µM)
a: true

q: Is 0.9 strictly greater than the molecule's reported relative viability? molecule: Oc1nc(-c2ccc(C(F)(F)F)cc2)nc2c1CSCC2 [XAV939] + COc1cc2c(Oc3ccc(NC(=O)C4(C(=O)Nc5ccc(F)cc5)CC4)cc3F)ccnc2cc1OCCCN1CCOCC1 [Foretinib] (partner 0.25 µM)
a: false

q: Is 0.9 strictly greater than the molecule's reported relative viability? molecule: C=C1C(=O)O[C@@H](CCCCCCCC)[C@@H]1C(=O)O [C-75] + O=C(CCCCCCC(=O)Nc1ccccc1)NO [Vorinostat] (partner 1 µM)
a: true

q: Is 0.9 strictly greater than the molecule's reported relative viability? molecule: Oc1nc(-c2ccc(C(F)(F)F)cc2)nc2c1CSCC2 [XAV939] + Cc1nc(NC(=O)N2CCC[C@H]2C(N)=O)sc1-c1ccnc(C(C)(C)C(F)(F)F)c1 [Alpelisib] (partner 2 µM)
a: false
